The sequences listed here are annotated with their apparent KD of MS2 coat protein.
Test system: MS2 coat protein
testSummary: apparent KD of MS2 coat protein, switch ON state; designed switch direction (-1 OFF switch, 1 ON switch): 1; higher = weaker reporter binding
experimentalSetup: FMN input: 0 or 200 uM; Eterna round: R93 (includes R88 designs)
quantityKind: apparent KD of MS2 coat protein

polymersequence="AAAAAACAUGAGGAUCACCCAUGUAAUUAAAACGCAGGAUAUAGAAAAAAAAAAAUGUUACUAGAAGGGUGAAAAA ['Same State 1']" assaytarget="MS2 coat protein" val="113 nM"
polymersequence="AAGAAACAUGAGGAUCACCCAUGUCGAGAGAGACGAGGAUAUCUGAAUCGAUUAGAUUACGGAGAAGGCGUGAAAA [Same State 1.2 (Same State of Confusion2 - minimal change )]" assaytarget="MS2 coat protein" val="18.3 nM"
polymersequence="AAAAAACAUGAGGAUCACCCAUGUGAGAACAUGGGAGGAUAUACGAGGACGAGAGUCAUAGUAGAAGGCCUAAAAA [Garnet 67]" assaytarget="MS2 coat protein" val="109 nM"
polymersequence="GAAAAACAUGAGGAUCACCCAUGUAGAAAUAUGGGAGGAUAUACAAAGACGAAAGUCAAAGUAGAAGGCCCAAAAG [Starry Same State 1.1 (mat747 round 1 mod)]" assaytarget="MS2 coat protein" val="24.1 nM"
polymersequence="AAAAAACAUGAGGAUCACCCAUGUGCAAAAUUCGCAGGAUAUUCUUCUCUUAAAUGAGAGGGAGAAGGGUGUAAAA [Nob's Hobby 24 - Jieux - Same State 1]" assaytarget="MS2 coat protein" val="18.2 nM"
polymersequence="GGAAGACAUGAGGAUCACCCAUGUGGGAAUAUGGGAGGAUAUACAAAGACGAGAGUCAGAGUAGAAGGCCUAGGAA [salish99-ss1-99]" assaytarget="MS2 coat protein" val="37.8 nM"
polymersequence="AACAAUCUAUCUGAGGAUAUAUGUCAAAAGACAUGAGGAUCACCCAUGUAAAAACAUGAAAAAUAAUAGAAGGCAGAUAGAUUGA [SS2: 1140]" assaytarget="MS2 coat protein" val="59.9 nM"
polymersequence="GAACCACAUGAGGAUCACCCAUGUCUAAGAAUGGGAGGAUAUGCACAAAAGGAAAUAACUGCAGAAGGCCUACGAA [62%, Redo, 2]" assaytarget="MS2 coat protein" val="23.2 nM"
polymersequence="ACAAAACAUGAGGAUCACCCAUGUCAGAAAUGGCAAGGAUAUAGAAAACAAAAACAAAAACUAGAAGGUGCAAAAC [Meechl SS1 R2 m3]" assaytarget="MS2 coat protein" val="84.8 nM"
polymersequence="AUAAAAUACUGUGAGGAUAUCCAUAAUAAAACAUGAGGAUCACCCAUGUGUAGAUAAUAAUAAUGGGAGAAGGCACAUAAUAAUA [Mat - Same state - Mayanna Mod - D101]" assaytarget="MS2 coat protein" val="15.7 nM"
polymersequence="GAAAAACAUGAGGAUCACCCAUGUAAAAAUAUGGGAGGAUAUUGAAACACGAAAGUCAAACAAGAAGGCCUAAAAG [Garnet 3]" assaytarget="MS2 coat protein" val="44.1 nM"
polymersequence="GAAAAACAUGAGGAUCACCCAUGUAGAGAUAUGGGAGGAUAUACGAAGACGAAAGACGAGGUAGAAGGCCUAAAAG [Garnet 57]" assaytarget="MS2 coat protein" val="66.1 nM"
polymersequence="AAUAGACAUGAGGAUCACCCAUGUAGAAUUAUGGGAGGAUAUACAAAGACGAGAGUCAGAGUAGAAGGCCUAGGAC [salish99-ss1-151]" assaytarget="MS2 coat protein" val="20.7 nM"
